Ref: patent USRE38970E1

test system: plasma lipoperoxidation; experiment: In vitro plasma lipoperoxidation inhibitory activity (malondialdehyde production); format: biochemical, Wister rats; conditions: rat heparinized plasma, test compound final concentration 10^-5M, copper sulfate, malondialdehyde production vs control
Field: Inhibition (%) of plasma lipoperoxidation. Provide a value for each of the compounds that follow.
Entry rule: numbers only, all in %.

Query: Quote Inhibition (%) of plasma lipoperoxidation reported for CCCCCCCCN1CCc2cc(CO)c(C)c(NC(=O)C(C)(C)C)c21 please.
Response: 51.7

Query: Quote Inhibition (%) of plasma lipoperoxidation reported for CCCCCCCCN1CCc2c(C)c(CO)c(C)c(NC(=O)C(C)(C)C)c21 please.
Response: 51.7

Query: Quote Inhibition (%) of plasma lipoperoxidation reported for CCCCCCCCN1CCc2c(C)c(C(=O)O)c(C)c(NC(=O)C(C)(C)C)c21 please.
Response: 48.3

Query: Quote Inhibition (%) of plasma lipoperoxidation reported for CCCCCCCCN1CCc2cc(C(=O)O)c(C)c(NC(=O)C(C)(C)C)c21 please.
Response: 47.7

Query: Quote Inhibition (%) of plasma lipoperoxidation reported for CCCCCCCCN1CCc2cc(CN(C)C)c(C)c(NC(=O)C(C)(C)C)c21 please.
Response: 47.1
